Where do the numbers come from? From paper PMC12615485.

# Target under test: NS3-NS5 interaction (NS3 f.l. binding to coated 6His-NS5_270–900) (Dengue virus type 2)
# Measurement notes: ELISA-based NS3-NS5 interaction assay
# Design: species or system DENV-2
# Measurement parameters: analogues of hit 3, in-house synthesized hit 3 as control; 50% inhibition of NS3-NS5 binding in ELISA; read-out: In vitro activity IC50
pIC50: −log10 of the molar value.
// label = Fulfilled if pIC50 is not less than 4, otherwise Not fulfilled

Smiles repr	Target under test	Class name
COc1ccc(NC(=S)NNC(=O)c2ccccc2O)cc1	NS3-NS5 interaction (NS3 f.l. binding to coated 6His-NS5_270–900) (Dengue virus type 2)	Not fulfilled
Cc1ccc(NC(=S)NNC(=O)c2ccc(O)cc2)cc1	NS3-NS5 interaction (NS3 f.l. binding to coated 6His-NS5_270–900) (Dengue virus type 2)	Not fulfilled
Cc1ccc(NC(=S)NNC(=O)c2cccs2)cc1	NS3-NS5 interaction (NS3 f.l. binding to coated 6His-NS5_270–900) (Dengue virus type 2)	Fulfilled
Cc1ccc(Nc2nc(-c3ccccc3O)cs2)cc1	NS3-NS5 interaction (NS3 f.l. binding to coated 6His-NS5_270–900) (Dengue virus type 2)	Not fulfilled
COc1ccccc1C(=O)NNC(=S)Nc1ccc(C)cc1	NS3-NS5 interaction (NS3 f.l. binding to coated 6His-NS5_270–900) (Dengue virus type 2)	Fulfilled
Cc1ccc(NC(=S)NNC(=O)c2ccc(O)cc2O)cc1	NS3-NS5 interaction (NS3 f.l. binding to coated 6His-NS5_270–900) (Dengue virus type 2)	Not fulfilled
Cc1ccc(NC(=O)NNC(=O)c2ccccc2O)cc1	NS3-NS5 interaction (NS3 f.l. binding to coated 6His-NS5_270–900) (Dengue virus type 2)	Fulfilled
Cc1ccc(NC(=S)NNC(=O)c2cccc(O)c2)cc1	NS3-NS5 interaction (NS3 f.l. binding to coated 6His-NS5_270–900) (Dengue virus type 2)	Not fulfilled
O=C(NNC(=S)Nc1ccc([N+](=O)[O-])cc1)c1ccccc1O	NS3-NS5 interaction (NS3 f.l. binding to coated 6His-NS5_270–900) (Dengue virus type 2)	Not fulfilled
COc1ccc(C(=O)NNC(=S)Nc2ccccc2)cc1	NS3-NS5 interaction (NS3 f.l. binding to coated 6His-NS5_270–900) (Dengue virus type 2)	Not fulfilled
Cc1ccc(NC(=S)NNC(=O)c2ccc(C(F)(F)F)cc2C(F)(F)F)cc1	NS3-NS5 interaction (NS3 f.l. binding to coated 6His-NS5_270–900) (Dengue virus type 2)	Not fulfilled
Cc1ccc(NC(=S)NNC(=O)c2ccccc2F)cc1	NS3-NS5 interaction (NS3 f.l. binding to coated 6His-NS5_270–900) (Dengue virus type 2)	Fulfilled
